- measurement-target: Taste receptor type 2 member 46 (Homo sapiens) (UniProt P59540)
- Sequence (P59540 whole entry): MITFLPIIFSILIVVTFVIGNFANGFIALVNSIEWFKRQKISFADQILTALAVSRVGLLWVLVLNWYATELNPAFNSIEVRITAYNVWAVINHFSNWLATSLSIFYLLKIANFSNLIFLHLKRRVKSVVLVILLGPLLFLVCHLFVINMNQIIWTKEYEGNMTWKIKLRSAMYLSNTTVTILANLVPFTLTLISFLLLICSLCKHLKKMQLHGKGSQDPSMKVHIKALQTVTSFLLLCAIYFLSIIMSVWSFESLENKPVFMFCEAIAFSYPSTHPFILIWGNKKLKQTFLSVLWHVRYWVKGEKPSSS
- test-method-notes: Agonist activity at human TAS2R46 expressed in human BEAS2B cells assessed as antiinflammatory activity by measuring reduction in PMA-induced superoxide anion generation at 1 uM preincubated for 1 hr followed by PMA addition and measured after 30 mins by cytochrome C reduction assay
- Assay type: cell-based
The source made the active and inactive calls. The calls are words filed in the database; no cut-off is given here.
metric-name: Activity

CC1=C2C=C(C(C)NC(=O)N=[N+]=[N-])CC[C@](C)(O)[C@@H]2[C@H]2[C@@H]3CC4(C)O[C@@]5(C)CC[C@H]6[C@H](C)C(=O)O[C@@H]6C4([C@@H]35)[C@@H]12 (some centres undefined) | Active
CC1=C2C=C([C@H](C)C(=O)OCCc3ccccc3)CC[C@](C)(O)[C@@H]2[C@H]2[C@@H]3CC4(C)O[C@@]5(C)CC[C@H]6[C@H](C)C(=O)O[C@@H]6C4([C@@H]35)[C@@H]12 | Active
COC(=O)[C@@H](C)C1=CC2=C(C)[C@H]3[C@H]([C@@H]4CC5(C)O[C@@]6(C)CC[C@H]7[C@H](C)C(=O)O[C@@H]7C35[C@@H]46)[C@H]2[C@@](C)(O)CC1 | Active
CC1=C[C@@H]2[C@H]3[C@H](C(C)=C4[C@H]5OC(=O)[C@@H](C)[C@@H]5CC[C@](C)(O)[C@@H]43)[C@@]13[C@@H]2[C@@](C)(O)CC[C@H]1[C@H](C)C(=O)O[C@@H]13 | Active
